- Species on record: Rattus norvegicus
- Test Description: Open TG-GATES - Regimen: Daily Repeat
- Type: toxicity, organism-based, Sprague-Dawley
- Design: regimen Daily Repeat, gender Male, age 6 weeks
- Condition Description: in vivo, po, 300 mg/kg, […], tissue Plasma, route gavage, dose level Middle, time 7 day
Reported Property: Ca (mg/dL)

| Item Smiles | Data Value |
| --- | --- |
| CN/C(=N/CCSCc1nc[nH]c1C)NC#N | 10.8 |
| CCOc1ccc(NC(C)=O)cc1 | 11 |
| Cc1nnc2n1-c1ccc(Cl)cc1C(c1ccccc1Cl)=NC2 | 11.1 |
| CNC(=C[N+](=O)[O-])NCCSCc1ccc(CN(C)C)o1 | 10.6 |
| COC(=O)C1=C(C)NC(C)=C(C(=O)OC)C1c1ccccc1[N+](=O)[O-] | 10.8 |
| O=C(OC[C@H]1O[C@@H](OC(=O)c2cc(O)c(O)c(OC(=O)c3cc(O)c(O)c(O)c3)c2)[C@H](OC(=O)c2cc(O)c(O)c(OC(=O)c3cc(O)c(O)c(O)c3)c2)[C@@H](OC(=O)c2cc(O)c(O)c(OC(=O)c3cc(O)c(O)c(O)c3)c2)[C@@H]1OC(=O)c1cc(O)c(O)c(OC(=O)c2cc(O)c(O)c(O)c2)c1)c1cc(O)c(O)c(OC(=O)c2cc(O)c(O)c(O)c2)c1 | 10.8 |

###

KIDNEY_L listing for selected compounds.
- Species on record: Rattus norvegicus
- Test Description: Open TG-GATES - Regimen: Daily Repeat
- Format: toxicity, organism-based, Sprague-Dawley
- Set-up: regimen Daily Repeat, gender Male, age 6 weeks
- Condition Description: in vivo, po, 100 mg/kg, […], tissue Kidney, route gavage, dose level Low, time 7 day

| Compound | KIDNEY_L [g] |
| --- | --- |
| CNC(=C[N+](=O)[O-])NCCSCc1ccc(CN(C)C)o1 [RANITIDINE] | 1.1 |
| COC(=O)C1=C(C)NC(C)=C(C(=O)OC)C1c1ccccc1[N+](=O)[O-] [NIFEDIPINE] | 1.1 |
| CN/C(=N/CCSCc1nc[nH]c1C)NC#N [CIMETIDINE] | 1.1 |
| CCOc1ccc(NC(C)=O)cc1 [PHENACETIN] | 1.1 |
| Cc1nnc2n1-c1ccc(Cl)cc1C(c1ccccc1Cl)=NC2 [TRIAZOLAM] | 1.1 |
| O=C(OC[C@H]1O[C@@H](OC(=O)c2cc(O)c(O)c(OC(=O)c3cc(O)c(O)c(O)c3)c2)[C@H](OC(=O)c2cc(O)c(O)c(OC(=O)c3cc(O)c(O)c(O)c3)c2)[C@@H](OC(=O)c2cc(O)c(O)c(OC(=O)c3cc(O)c(O)c(O)c3)c2)[C@@H]1OC(=O)c1cc(O)c(O)c(OC(=O)c2cc(O)c(O)c(O)c2)c1)c1cc(O)c(O)c(OC(=O)c2cc(O)c(O)c(O)c2)c1 [TANNIC ACID] | 1 |

###

MCV listing for selected molecules.
- Species: Rattus norvegicus
- Test Description: Open TG-GATES - Regimen: Daily Repeat
- Assay type: toxicity, organism-based, Sprague-Dawley
- Set-up: regimen Daily Repeat, gender Male, age 6 weeks
- Condition Description: in vivo, po, 300 mg/kg, 72 h, tissue Blood, route gavage, dose level Middle, time 3 day

| Item Smiles | MCV |
| --- | --- |
| CNC(=C[N+](=O)[O-])NCCSCc1ccc(CN(C)C)o1 | 63.8 fL |
| CN/C(=N/CCSCc1nc[nH]c1C)NC#N | 63.5 fL |
| COC(=O)C1=C(C)NC(C)=C(C(=O)OC)C1c1ccccc1[N+](=O)[O-] | 66.1 fL |
| CCOc1ccc(NC(C)=O)cc1 | 60.1 fL |
| Cc1nnc2n1-c1ccc(Cl)cc1C(c1ccccc1Cl)=NC2 | 64.4 fL |
| O=C(OC[C@H]1O[C@@H](OC(=O)c2cc(O)c(O)c(OC(=O)c3cc(O)c(O)c(O)c3)c2)[C@H](OC(=O)c2cc(O)c(O)c(OC(=O)c3cc(O)c(O)c(O)c3)c2)[C@@H](OC(=O)c2cc(O)c(O)c(OC(=O)c3cc(O)c(O)c(O)c3)c2)[C@@H]1OC(=O)c1cc(O)c(O)c(OC(=O)c2cc(O)c(O)c(O)c2)c1)c1cc(O)c(O)c(OC(=O)c2cc(O)c(O)c(O)c2)c1 | 64.9 fL |

###

- Organism: Rattus norvegicus
- Test Description: Open TG-GATES - Regimen: Single
- Format: toxicity, organism-based, Sprague-Dawley
- Parameters: regimen Single, gender Male, age 6 weeks
- Condition Description: in vivo, po, 1000 mg/kg, 24 h, tissue Blood, route gavage, dose level High
MCH listing for selected molecules.
Reported Property: MCH (pg)

| Molecule | Reported Property | Data Value |
| --- | --- | --- |
| Cc1nnc2n1-c1ccc(Cl)cc1C(c1ccccc1Cl)=NC2 [TRIAZOLAM] | MCH | 20.8 |
| COC(=O)C1=C(C)NC(C)=C(C(=O)OC)C1c1ccccc1[N+](=O)[O-] [NIFEDIPINE] | MCH | 20.9 |
| CNC(=C[N+](=O)[O-])NCCSCc1ccc(CN(C)C)o1 [RANITIDINE] | MCH | 22.4 |
| CN/C(=N/CCSCc1nc[nH]c1C)NC#N [CIMETIDINE] | MCH | 21.3 |
| O=C(OC[C@H]1O[C@@H](OC(=O)c2cc(O)c(O)c(OC(=O)c3cc(O)c(O)c(O)c3)c2)[C@H](OC(=O)c2cc(O)c(O)c(OC(=O)c3cc(O)c(O)c(O)c3)c2)[C@@H](OC(=O)c2cc(O)c(O)c(OC(=O)c3cc(O)c(O)c(O)c3)c2)[C@@H]1OC(=O)c1cc(O)c(O)c(OC(=O)c2cc(O)c(O)c(O)c2)c1)c1cc(O)c(O)c(OC(=O)c2cc(O)c(O)c(O)c2)c1 [TANNIC ACID] | MCH | 21.5 |

###

- Species: Rattus norvegicus
- Test Description: Open TG-GATES - Regimen: Daily Repeat
- Assay type: toxicity, organism-based, Sprague-Dawley
- Parameters: regimen Daily Repeat, gender Male, age 6 weeks
- Condition Description: in vivo, po, 0 mg/kg, 72 h, tissue Blood, route gavage, dose level Control, time 3 day
Neu listing for selected molecules.

| Molecule | Neu [%] |
| --- | --- |
| Nc1c2c(nc3ccccc13)CCCC2 | 14.8 |
| COC(=O)C1=C(C)NC(C)=C(C(=O)OC)C1c1ccccc1[N+](=O)[O-] | 14 |
| CN1C(=O)CCS(=O)(=O)C1c1ccc(Cl)cc1 (stereo not drawn) | 17.8 |
| CNC(=C[N+](=O)[O-])NCCSCc1ccc(CN(C)C)o1 | 15.2 |
| CN/C(=N/CCSCc1nc[nH]c1C)NC#N | 11.2 |
| O=C(OC[C@H]1O[C@@H](OC(=O)c2cc(O)c(O)c(OC(=O)c3cc(O)c(O)c(O)c3)c2)[C@H](OC(=O)c2cc(O)c(O)c(OC(=O)c3cc(O)c(O)c(O)c3)c2)[C@@H](OC(=O)c2cc(O)c(O)c(OC(=O)c3cc(O)c(O)c(O)c3)c2)[C@@H]1OC(=O)c1cc(O)c(O)c(OC(=O)c2cc(O)c(O)c(O)c2)c1)c1cc(O)c(O)c(OC(=O)c2cc(O)c(O)c(O)c2)c1 | 15 |
| CCOc1ccc(NC(C)=O)cc1 | 24.4 |
| NC1=NC(=O)C(c2ccccc2)O1 (stereo not drawn) | 17.6 |
| CC(C)NNC(=O)c1ccncc1 | 16.4 |
| Cc1nnc2n1-c1ccc(Cl)cc1C(c1ccccc1Cl)=NC2 | 19.2 |
| CN(C)CCC(c1ccc(Cl)cc1)c1ccccn1 (stereo not drawn) | 17.4 |
| Brc1ccccc1 | 15.6 |
| CCCc1cc(=O)[nH]c(=S)[nH]1 | 17.4 |

###

- Species on record: Rattus norvegicus
- Test Description: Open TG-GATES - Regimen: Daily Repeat
- Assay type: toxicity, organism-based, Sprague-Dawley
- Parameters: regimen Daily Repeat, gender Male, age 6 weeks
- Condition Description: in vivo, po, 300 mg/kg, […], tissue Kidney, route gavage, dose level Middle, time 7 day
KIDNEY_TOTAL listing for selected compounds.
Reported Property: KIDNEY_TOTAL (g)

| Compound | Reported Property | Data Value |
| --- | --- | --- |
| O=C(OC[C@H]1O[C@@H](OC(=O)c2cc(O)c(O)c(OC(=O)c3cc(O)c(O)c(O)c3)c2)[C@H](OC(=O)c2cc(O)c(O)c(OC(=O)c3cc(O)c(O)c(O)c3)c2)[C@@H](OC(=O)c2cc(O)c(O)c(OC(=O)c3cc(O)c(O)c(O)c3)c2)[C@@H]1OC(=O)c1cc(O)c(O)c(OC(=O)c2cc(O)c(O)c(O)c2)c1)c1cc(O)c(O)c(OC(=O)c2cc(O)c(O)c(O)c2)c1 [TANNIC ACID] | KIDNEY_TOTAL | 2.1 |
| CNC(=C[N+](=O)[O-])NCCSCc1ccc(CN(C)C)o1 [RANITIDINE] | KIDNEY_TOTAL | 2.2 |
| CN/C(=N/CCSCc1nc[nH]c1C)NC#N [CIMETIDINE] | KIDNEY_TOTAL | 2.2 |
| COC(=O)C1=C(C)NC(C)=C(C(=O)OC)C1c1ccccc1[N+](=O)[O-] [NIFEDIPINE] | KIDNEY_TOTAL | 2 |
| Cc1nnc2n1-c1ccc(Cl)cc1C(c1ccccc1Cl)=NC2 [TRIAZOLAM] | KIDNEY_TOTAL | 2.2 |
| CCOc1ccc(NC(C)=O)cc1 [PHENACETIN] | KIDNEY_TOTAL | 2.3 |
